Biological target: CYP2D6 (Homo sapiens)
Sequence (P10635 whole entry): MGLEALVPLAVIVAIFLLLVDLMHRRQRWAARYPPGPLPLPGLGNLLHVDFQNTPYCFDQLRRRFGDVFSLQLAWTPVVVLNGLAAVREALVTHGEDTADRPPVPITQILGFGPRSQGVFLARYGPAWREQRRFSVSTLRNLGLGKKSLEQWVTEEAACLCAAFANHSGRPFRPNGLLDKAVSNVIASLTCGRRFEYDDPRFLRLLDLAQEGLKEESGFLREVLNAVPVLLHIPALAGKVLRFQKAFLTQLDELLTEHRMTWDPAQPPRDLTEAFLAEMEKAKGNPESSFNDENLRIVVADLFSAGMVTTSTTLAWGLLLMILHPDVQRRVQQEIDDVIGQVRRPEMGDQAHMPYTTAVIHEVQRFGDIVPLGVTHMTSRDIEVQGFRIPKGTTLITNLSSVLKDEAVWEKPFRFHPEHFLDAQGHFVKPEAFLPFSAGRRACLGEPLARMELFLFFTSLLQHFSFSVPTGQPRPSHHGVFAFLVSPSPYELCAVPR
Assay: Inhibition of CYP2D6 at 10 uM
Format: ADME
quantityKind: inhibition at 10 µM (%)
// units = %; emit number, no label

QUERY: Entry Clc1ccc2ncc(-c3cccc(NC4CNC4)n3)n2c1 : reported inhibition at 10 µM = ?
RESULT: 21

====

Entries with reported log10(IC50) on Interleukin-1 receptor-associated kinase 4 (Homo sapiens)
Sequence (Q9NWZ3 whole entry): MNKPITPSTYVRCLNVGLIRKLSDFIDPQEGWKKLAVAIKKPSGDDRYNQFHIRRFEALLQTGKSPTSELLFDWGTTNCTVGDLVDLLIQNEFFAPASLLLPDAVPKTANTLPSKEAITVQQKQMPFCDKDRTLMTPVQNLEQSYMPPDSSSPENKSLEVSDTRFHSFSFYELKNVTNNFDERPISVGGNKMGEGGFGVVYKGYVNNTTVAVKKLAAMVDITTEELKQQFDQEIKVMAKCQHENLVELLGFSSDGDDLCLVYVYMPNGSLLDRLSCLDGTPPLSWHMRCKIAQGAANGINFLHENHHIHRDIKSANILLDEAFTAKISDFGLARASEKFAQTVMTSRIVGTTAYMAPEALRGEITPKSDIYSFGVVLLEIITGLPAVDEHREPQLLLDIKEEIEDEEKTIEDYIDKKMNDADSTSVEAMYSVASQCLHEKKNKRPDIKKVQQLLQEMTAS
In our notation, the value equals log10 of IC50 in nM.

Please review the following examples before continuing.
| compound | quantityKind | endpointResult |
| --- | --- | --- |
| COc1ccc2ncc(-c3cccc(NC4CNC4)n3)n2c1 | log10(IC50) | 0.85 |
| Cc1ccc2ncn(-c3cccc(NC4CCNCC4)n3)c2c1 | log10(IC50) | 1.00 |
| Clc1ccc2ncc(-c3cccc(NC4CNC4)n3)n2c1 | log10(IC50) | 0.78 |

QUERY: Entry Clc1ccc2c(c1)ncn2-c1cccc(NC2CCNCC2)n1 : reported log10(IC50) = ?
RESULT: 2.05

QUERY: Entry NC1CCCN(c2cccc(-c3cnc4ccccn34)n2)C1 (racemic) : reported log10(IC50) = ?
RESULT: 2.73

QUERY: Entry Clc1ccc2ncn(-c3cccc(NC4CCNCC4)n3)c2c1 : reported log10(IC50) = ?
RESULT: 0.48

====

Biological target: Cytochrome P450 3A4 (Homo sapiens, UniProt P08684)
Sequence (P08684 whole entry): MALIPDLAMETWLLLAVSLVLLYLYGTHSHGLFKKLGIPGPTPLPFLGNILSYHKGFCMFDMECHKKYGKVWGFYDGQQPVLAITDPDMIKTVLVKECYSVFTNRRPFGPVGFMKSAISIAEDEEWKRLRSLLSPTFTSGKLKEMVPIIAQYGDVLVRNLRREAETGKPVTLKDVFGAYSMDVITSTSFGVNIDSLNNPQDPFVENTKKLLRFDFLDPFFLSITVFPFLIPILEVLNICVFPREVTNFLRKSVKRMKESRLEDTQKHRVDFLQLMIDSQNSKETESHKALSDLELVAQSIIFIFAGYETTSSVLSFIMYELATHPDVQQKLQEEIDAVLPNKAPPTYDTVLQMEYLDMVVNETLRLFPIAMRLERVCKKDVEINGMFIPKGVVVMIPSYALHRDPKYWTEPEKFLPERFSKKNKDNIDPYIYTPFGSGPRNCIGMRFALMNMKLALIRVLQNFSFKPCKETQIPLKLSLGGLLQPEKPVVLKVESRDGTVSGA
Assay: Inhibition of CYP3A4
Assay type: ADME
Design: concentration or dose not given beside the values
Consider the following compounds and their measured Inhibition readings.
// units = %; emit number, no label

| compound | endpointResult |
| --- | --- |
| Clc1ccc2ncc(-c3cccc(NC4CCNC4)n3)n2c1 (racemic) | 12 |
| Clc1ccc2ncc(-c3cccc(NC4CNC4)n3)n2c1 | 11 |
| COc1ccc2ncc(-c3cccc(NC4CCNCC4)n3)n2c1 | 31 |
| N#Cc1ccc2ncc(-c3cccc(NC4CCNCC4)n3)n2c1 | 22 |

QUERY: Entry Clc1ccc2ncc(-c3cccc(NC4CCCNC4)n3)n2c1 (racemic) : reported Inhibition = ?
RESULT: 8.6

====

Biological target: Interleukin-1 receptor-associated kinase 1 (Homo sapiens)
Sequence (P51617 whole entry): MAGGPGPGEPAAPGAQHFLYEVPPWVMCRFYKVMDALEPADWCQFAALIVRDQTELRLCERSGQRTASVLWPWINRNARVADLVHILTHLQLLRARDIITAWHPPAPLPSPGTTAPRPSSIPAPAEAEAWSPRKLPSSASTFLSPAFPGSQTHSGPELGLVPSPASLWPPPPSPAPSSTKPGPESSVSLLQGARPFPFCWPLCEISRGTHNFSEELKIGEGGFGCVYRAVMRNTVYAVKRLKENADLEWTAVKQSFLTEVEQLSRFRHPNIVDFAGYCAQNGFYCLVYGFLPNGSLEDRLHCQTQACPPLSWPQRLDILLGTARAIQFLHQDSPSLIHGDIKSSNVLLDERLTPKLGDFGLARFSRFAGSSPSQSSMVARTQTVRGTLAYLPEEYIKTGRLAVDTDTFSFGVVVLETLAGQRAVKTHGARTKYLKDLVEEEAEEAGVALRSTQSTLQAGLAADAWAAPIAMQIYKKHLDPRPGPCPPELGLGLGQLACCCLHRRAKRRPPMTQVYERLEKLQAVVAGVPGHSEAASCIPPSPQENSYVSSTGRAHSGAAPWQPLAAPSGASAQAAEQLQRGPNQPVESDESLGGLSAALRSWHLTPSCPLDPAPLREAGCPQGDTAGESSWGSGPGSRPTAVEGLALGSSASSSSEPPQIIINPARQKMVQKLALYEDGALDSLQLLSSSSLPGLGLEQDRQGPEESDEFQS
pIC50: −log10 of the molar value.
Please note: Yes applies when pIC50 is 4 or greater, and No applies otherwise.

Examples with answers:
| molecule | category |
| --- | --- |
| Clc1ccc2ncc(-c3cccc(NC4CCCNC4)n3)n2c1 (racemic) | No |
| Clc1ccc2ncc(-c3cccc(NC4CCNC4)n3)n2c1 (racemic) | Yes |
| Clc1ccc2ncc(-c3cccc(NC4CNC4)n3)n2c1 | No |

Moving on to another molecule below.
QUERY: Check if pIC50 >= 4 (inclusive). Item: COc1ccc2ncc(-c3cccc(NC4CCNCC4)n3)n2c1
RESULT: No

====

Consider the following compounds and their measured Activity readings.
Test system: PBMC
Assay: Inhibition of LPS-induced TNFalpha release in human PBMC cells
Type: functional
// units = nM; emit number, no label

Please review the following examples before continuing.
| compound | unitAbbrev | endpointResult |
| --- | --- | --- |
| Clc1ccc2ncc(-c3cccc(NC4CCNC4)n3)n2c1 (racemic) | nM | 16 |
| Clc1ccc2ncc(-c3cccc(NC4CCCNC4)n3)n2c1 (racemic) | nM | 65 |

QUERY: Entry N#Cc1ccc2ncc(-c3cccc(NC4CCNCC4)n3)n2c1 : reported Activity = ?
RESULT: 200

QUERY: Entry Clc1ccc2ncc(-c3cccc(NC4CNC4)n3)n2c1 : reported Activity = ?
RESULT: 54

QUERY: Entry COc1ccc2ncc(-c3cccc(NC4CCNCC4)n3)n2c1 : reported Activity = ?
RESULT: 220

====

Experiment: Intrinsic clearance in human microsomes at 0.5 uM
Type: ADME, Microsome
quantityKind: microsomal CLint at 0.5 µM (µL/min/mg)
// units = µL/min/mg; emit number, no label

| compound | quantityKind | endpointResult |
| --- | --- | --- |
| N#Cc1ccc2ncc(-c3cccc(NC4CCNCC4)n3)n2c1 | microsomal CLint at 0.5 µM | 8.3 |
| COc1ccc2ncc(-c3cccc(NC4CCNCC4)n3)n2c1 | microsomal CLint at 0.5 µM | 19.5 |
| Clc1ccc2ncc(-c3cccc(NC4CCCNC4)n3)n2c1 (racemic) | microsomal CLint at 0.5 µM | 29.5 |

QUERY: Entry Clc1ccc2ncc(-c3cccc(NC4CNC4)n3)n2c1 : reported microsomal CLint at 0.5 µM = ?
RESULT: 13

QUERY: Entry Clc1ccc2ncc(-c3cccc(NC4CCNC4)n3)n2c1 (racemic) : reported microsomal CLint at 0.5 µM = ?
RESULT: 19.2

====

Consider the following molecules and their measured pIC50 readings.
Molecular target: Interleukin-1 receptor-associated kinase 4 (Homo sapiens)
Scale explanation: pIC50 corresponds to minus log10 of a concentration expressed in moles per litre.

Please review the following examples before continuing.
| molecule | quantityKind | endpointResult |
| --- | --- | --- |
| c1cc(NC2C[C@H]3CC[C@@H](C2)N3)nc(-c2cnc3ccccn23)c1 (stereo not given in full) | pIC50 | 6.65 |
| NC1CCN(c2cccc(-c3cnc4ccccn34)n2)CC1 | pIC50 | 5.73 |
| c1cc(-c2cnc3ccccn23)nc(N2C[C@H]3C[C@@H]2CN3)c1 | pIC50 | 6.90 |
| Clc1cc2ncn(-c3cccc(NC4CCNCC4)n3)c2cc1Cl | pIC50 | 6.78 |

// switching to the query molecule
QUERY: Entry Clc1ccc2ncc(-c3cccc(NC4CCNC4)n3)n2c1 (racemic) : reported pIC50 = ?
RESULT: 9.00
